Test system: HIV
Experiment: inhibition of HIV-induced cytopathic effect in MT-4 cells (MTT method)
Assay type: cell-based
Conditions: ratio CD50/ED50, MT-4 cells
measurement type: S.I.: Selectivity index (CD50/ED50)

Inquiry: Would you kindly share the measured S.I.: Selectivity index (CD50/ED50) for "Cc1cc(C)cc(C(=O)c2c(C(C)C)c(=O)[nH]c(=O)n2C/C=C/CN=[N+]=[N-])c1" ?
Reply text: > 954

----------
Experiment: cytotoxicity: viability of mock-infected MT-4 host cells (MTT method)
Type: cell-based
Conditions: human, mt-4 cells, read-out: CD50: Cytotoxic concentration that causes death of cells by 50%
measurement type: CC50
Could you write the number and then its unit?

[[record]]
molecule = "CCc1c(Cc2cc(C)cc(C)c2)n(C/C=C/c2ccccc2)c(=O)[nH]c1=O"
result_value = "5.78 µg/mL"


Inquiry: Would you kindly share the measured CC50 for "C/C=C/Cn1c(Cc2cc(C)cc(C)c2)c(CC)c(=O)[nH]c1=O" ?
Reply text: 48.6 µg/mL

Inquiry: What do we get for "C#CCn1c(Sc2ccccc2)c(CC)c(=O)[nH]c1=O" ?
Reply text: 14.8 µg/mL

Inquiry: What do we get for "CC/C=C/Cn1c(C(=O)c2cc(C)cc(C)c2)c(C(C)C)c(=O)[nH]c1=O" ?
Reply text: 5.99 µg/mL

Inquiry: What do we get for "CCc1c(C(=O)c2cc(C)cc(C)c2)n(C/C=C/CO)c(=O)[nH]c1=O" ?
Reply text: 55.4 µg/mL

Inquiry: What do we get for "C/C=C/Cn1c(C(=O)c2cc(C)cc(C)c2)c(C(C)C)c(=O)[nH]c1=O" ?
Reply text: 22.3 µg/mL

Inquiry: What do we get for "CC#CCn1c(Sc2cc(C)cc(C)c2)c(CC)c(=O)[nH]c1=O" ?
Reply text: 62.5 µg/mL

Inquiry: What do we get for "Cc1cc(C)cc(Oc2c(C(C)C)c(=O)[nH]c(=O)n2C/C=C/c2ccccc2)c1" ?
Reply text: 8.04 µg/mL

Inquiry: What do we get for "CCc1c(C(=O)c2cc(C)cc(C)c2)n(CC#Cc2ccccc2)c(=O)[nH]c1=O" ?
Reply text: 4.34 µg/mL

Inquiry: What do we get for CCc1c(Sc2cc(C)cc(C)c2)n(COCc2ccccc2)c(=O)[nH]c1=O [Ref. 2, reference compound] ?
Reply text: 6.05 µg/mL

Inquiry: What do we get for "C/C=C/Cn1c(Sc2ccccc2)c(CC)c(=O)[nH]c1=O" ?
Reply text: 16.2 µg/mL

----------
The entries below come with measured S.I.: Selectivity index (CD50/ED50) values attached.
Tested on: HIV
Test: inhibition of HIV-induced cytopathic effect in MT-4 cells (MTT method)
Assay type: cell-based
Details: ratio CD50/ED50, MT-4 cells
Description: The anti-HIV assays were based on the inhibition of the virus-induced cytopathic effect in MT-4 cells as described in J. Virol. Methods, 16, 171 (1987). Briefly, MT-4 cells were suspended in culture medium at 2.5×10^5 cells/ml and infected with 1000 CCID50 (50% cell culture infective dose) of HIV. […] After a 4 or 5 day incubation at 37° C., the number of viable cells was determined by the 3-(4,5-dimethylthiazol-2-yl)-2,5-diphenyltetrazoliumbromide (MTT) method, as disclosed in J. Virol. […]

[[record]]
compound_structure = "C=CCn1c(Oc2cc(C)cc(C)c2)c(CC)c(=O)[nH]c1=O"
measurement_type = "S.I.: Selectivity index (CD50/ED50)"
result_value = "> 132"

[[record]]
compound_structure = "CCc1c(Cc2cc(C)cc(C)c2)n(CC=C(C)C)c(=O)[nH]c1=O"
measurement_type = "S.I.: Selectivity index (CD50/ED50)"
result_value = 66


Inquiry: Would you kindly share the measured S.I.: Selectivity index (CD50/ED50) for "CCc1c(Sc2cc(C)cc(C)c2)n(CC=CC(=O)O)c(=O)[nH]c1=O" ?
Reply text: > 75

Inquiry: What do we get for "C#CCn1c(Cc2cc(C)cc(C)c2)c(CC)c(=O)[nH]c1=O" ?
Reply text: > 75
